Answer each item with its documented kon.
target.or.test.system: T1, IL-13Rα1
T1 construct: also called IL13Ra1
T1 chain: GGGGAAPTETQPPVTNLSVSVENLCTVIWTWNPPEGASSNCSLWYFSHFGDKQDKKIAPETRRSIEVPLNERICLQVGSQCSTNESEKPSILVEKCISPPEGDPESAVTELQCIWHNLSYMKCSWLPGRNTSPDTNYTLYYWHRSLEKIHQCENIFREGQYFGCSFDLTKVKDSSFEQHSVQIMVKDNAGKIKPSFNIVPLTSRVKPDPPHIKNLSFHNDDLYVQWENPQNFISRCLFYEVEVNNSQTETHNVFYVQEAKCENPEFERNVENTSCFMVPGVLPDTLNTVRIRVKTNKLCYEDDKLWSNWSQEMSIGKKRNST
assay: SPR, kinetic (column K1)
Answer with the figure and its unit, nothing else.

# lookup: kon of A6 (ligand, grouped under 'IL-13Rα1 specific'; also called IL-13 variant A6) cytokine: PGPVPPSTAIRELIEELLNITQNQKAPLCNGSMVWSINLTAGMYCAALESLINVSGCSAIEKTQRMLSGFCPHKVSAGQFSSLHVMKSKIEVAQFVKDLLHHLRALFREGQFN
1.77e+06 M⁻¹ s⁻¹

Now consider A11 (ligand, Grouped under 'IL-13Rα1 specific'; also called IL-13 variant A11) cytokine: PGPVPPSTAVRELIEELINITQNQKAPLCNGSMVWSINLTAGMYCAALESLINVSGCSAIEKTQRMLSGFCPHKVSAGQFSSLHVRSSKIEVAQFVKDLLFHLRTLFREGQFN .
1.64e+07 M⁻¹ s⁻¹
